Tested on: Alopecurus myosuroides (ALOMY)
assay-comment: Post-emergence herbicidal activity, glasshouse pot test
Format: in vivo
measurement-setup: Alopecurus myosuroides, 312 h, rate 250 g/ha, evaluated after 13 days, glasshouse, read-out: Post-emergence activity ALOMY (100=total damage to plant; 0=no damage to plant)
readout-label: pest or weed control at 250 g/ha
Field: value (include unit after the number)

Report pest or weed control at 250 g/ha for each item below.
1. CCc1ccc(Oc2nc3cc(Cl)ccc3s2)cc1C1=C(O)CC2(CCOCC2)CC1=O
2. CCc1ccc(Oc2ccc(C#N)cn2)cc1C1=C(O)C(C)(C)OC(C)(C)C1=O
3. CCc1ccc(Oc2nc3ccc([N+](=O)[O-])cc3s2)cc1C1=C(O)[C@H]2CC[C@H](C2)C1=O
4. CCc1ccc(Oc2nccc(C(F)(F)F)n2)cc1C1=C(O)C(C)(C)OC(C)(C)C1=O

Result:
1: 90%; 2: 60%; 3: 60%; 4: 60%

Report pest or weed control at 250 g/ha for each item below.
1. CCc1ccc(Oc2ccc(C#N)cc2F)cc1C1=C(O)CC2(CCOCC2)CC1=O
2. CCc1ccc(Oc2nc3ccccc3nc2C(F)(F)F)cc1C1=C(O)C(C)(C)OC(C)(C)C1=O
3. CCc1ccc(Oc2ncc(C(F)(F)F)cc2Cl)cc1C1=C(O)[C@H]2CC[C@H](C2)C1=O
4. CCc1ccc(Oc2ccc(C#N)cc2C(F)(F)F)cc1C1=C(O)CC2(CCOCC2)CC1=O
5. CCc1ccc(Oc2ccc(Br)cc2)cc1C1=C(O)CC2(CCOCC2)CC1=O

Result:
1: 90%; 2: 90%; 3: 100%; 4: 70%; 5: 100%

Report pest or weed control at 250 g/ha for each item below.
1. CCc1ccc(Oc2ccc(C#N)cc2F)cc1C1=C(O)CC(C)(C)CC1=O
2. CCc1ccc(Oc2cnc3cc(F)ccc3n2)cc1C1=C(O)CC(C)(C)CC1=O

Result:
1: 70%; 2: 100%

Report pest or weed control at 250 g/ha for each item below.
1. CCc1ccc(Oc2nc3cccc(C#N)c3s2)cc1C1=C(O)C(C)(C)OC(C)(C)C1=O
2. CCc1ccc(Oc2ccc([N+](=O)[O-])c(C)c2)cc1C1=C(O)C(C)(C)OC(C)(C)C1=O

Result:
["60%", "70%"]

Report pest or weed control at 250 g/ha for each item below.
1. CCc1ccc(Oc2ccc(Br)cc2Cl)cc1C1=C(O)C(C)(C)OC(C)(C)C1=O
2. CCc1ccc(Oc2ncc(Cl)cn2)cc1C1=C(O)CC2(CCOCC2)CC1=O
3. CCc1ccc(Oc2cc(Cl)cc(Cl)n2)cc1C1=C(O)C(C)(C)OC(C)(C)C1=O
4. CCc1ccc(Oc2ccc(Cl)cc2Cl)cc1C1=C(O)CCCC1=O
5. CCc1ccc(Oc2ccc3ccccc3n2)cc1C1=C(O)CC(C)(C)CC1=O

Result:
["90%", "100%", "20%", "30%", "100%"]

Report pest or weed control at 250 g/ha for each item below.
1. CCc1ccc(Oc2ccc(Br)cc2)cc1C1=C(O)CCC(C)(C)C1=O
2. CCc1ccc(Oc2ccc(C#N)cc2)cc1C1=C(O)C(C)(C)OC(C)(C)C1=O
3. CCc1ccc(Oc2ccc(Br)cc2)cc1C1=C(O)[C@H]2CC[C@H](C2)C1=O (single isomer, unassigned)
4. CCc1ccc(Oc2cccc(Br)c2)cc1C1=C(O)[C@H]2CC[C@H](C2)C1=O
5. CCc1ccc(Oc2nc3ccccc3s2)cc1C1=C(O)[C@H]2CC[C@H](C2)C1=O

Result:
10%
100%
90%
0%
90%

Report pest or weed control at 250 g/ha for each item below.
1. CCc1ccc(Oc2ccc(C#N)cc2Cl)cc1C1=C(O)C(C)(C)OC(C)(C)C1=O
2. CCc1ccc(Oc2ncc(Br)cn2)cc1C1=C(O)CC(C)(C)CC1=O
3. CCc1ccc(Oc2cnc3ccccc3n2)cc1C1=C(O)CC2(CCOCC2)CC1=O
4. CCc1ccc(Oc2cccc(Br)c2)cc1C1=C(O)C(C)(C)OC(C)(C)C1=O
5. CCc1ccc(Oc2ccc(I)cn2)cc1C1=C(O)C(C)(C)OC(C)(C)C1=O
6. CCc1ccc(Oc2ncc(Cl)cc2F)cc1C1=C(O)CC2(CCOCC2)CC1=O

Result:
1. 90%
2. 100%
3. 100%
4. 30%
5. 90%
6. 100%

Report pest or weed control at 250 g/ha for each item below.
1. CCc1ccc(Oc2ccc(C#N)c(C(F)(F)F)c2)cc1C1=C(O)C(C)(C)OC(C)(C)C1=O
2. CCc1ccc(Oc2cccc(Cl)c2)cc1C1=C(O)C(C)(C)OC(C)(C)C1=O
3. CCc1ccc(Oc2ccc(Cl)cc2)cc1C1=C(O)CC2(CCOCC2)CC1=O

Result:
["80%", "20%", "100%"]
